target: F508delCFTR (Homo sapiens, UniProt P13569, DEL508-508); construct: expressed in transfected cells; host or cells: CFBE41o- human lung-derived epithelial cells (CFBE4lo-F508delCFTR-HRP), doxycycline-inducible; test: Cell Surface Expression-Horse Radish Peroxidase (CSE-HRP) Assay; type: cell-based; details: test compound without co-corrector; read-out: EC50 (without co-corrector)
Sequence (P13569 with tags, fused parts or gaps DEL508-508): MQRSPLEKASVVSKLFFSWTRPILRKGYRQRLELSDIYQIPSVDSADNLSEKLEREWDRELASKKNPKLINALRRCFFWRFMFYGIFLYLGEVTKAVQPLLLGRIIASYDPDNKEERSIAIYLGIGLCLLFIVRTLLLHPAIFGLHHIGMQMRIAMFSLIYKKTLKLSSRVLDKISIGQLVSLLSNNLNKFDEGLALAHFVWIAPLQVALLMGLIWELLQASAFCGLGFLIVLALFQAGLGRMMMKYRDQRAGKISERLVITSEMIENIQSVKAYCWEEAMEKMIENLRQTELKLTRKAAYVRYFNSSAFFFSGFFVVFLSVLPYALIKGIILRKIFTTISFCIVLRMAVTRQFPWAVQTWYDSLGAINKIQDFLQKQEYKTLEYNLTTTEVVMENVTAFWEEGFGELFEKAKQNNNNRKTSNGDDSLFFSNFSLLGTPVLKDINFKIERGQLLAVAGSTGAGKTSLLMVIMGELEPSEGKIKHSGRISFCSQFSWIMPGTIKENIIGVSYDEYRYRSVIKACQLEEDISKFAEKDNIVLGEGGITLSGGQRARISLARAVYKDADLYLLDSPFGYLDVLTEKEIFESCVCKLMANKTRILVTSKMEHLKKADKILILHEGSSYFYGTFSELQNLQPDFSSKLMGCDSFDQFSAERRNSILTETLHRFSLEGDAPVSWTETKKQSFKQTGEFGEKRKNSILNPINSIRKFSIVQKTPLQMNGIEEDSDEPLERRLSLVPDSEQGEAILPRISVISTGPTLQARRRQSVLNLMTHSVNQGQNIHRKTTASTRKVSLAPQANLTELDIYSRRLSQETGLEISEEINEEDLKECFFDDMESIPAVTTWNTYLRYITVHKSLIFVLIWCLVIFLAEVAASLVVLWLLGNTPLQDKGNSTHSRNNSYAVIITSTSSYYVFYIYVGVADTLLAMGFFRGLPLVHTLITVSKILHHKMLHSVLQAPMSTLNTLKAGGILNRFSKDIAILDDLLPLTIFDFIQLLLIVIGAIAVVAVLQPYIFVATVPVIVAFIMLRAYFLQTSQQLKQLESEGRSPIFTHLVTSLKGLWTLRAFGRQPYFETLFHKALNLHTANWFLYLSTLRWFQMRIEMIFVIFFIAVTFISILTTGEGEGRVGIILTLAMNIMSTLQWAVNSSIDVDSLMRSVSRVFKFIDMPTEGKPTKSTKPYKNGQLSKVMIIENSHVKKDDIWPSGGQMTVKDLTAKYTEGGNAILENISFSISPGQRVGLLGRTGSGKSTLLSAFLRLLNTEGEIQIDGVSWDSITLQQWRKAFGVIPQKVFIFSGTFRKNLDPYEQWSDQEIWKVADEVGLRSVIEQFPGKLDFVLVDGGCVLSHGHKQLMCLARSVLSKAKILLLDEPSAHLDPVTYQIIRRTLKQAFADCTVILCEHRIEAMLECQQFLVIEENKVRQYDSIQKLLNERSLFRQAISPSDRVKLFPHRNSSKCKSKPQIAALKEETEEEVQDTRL
pEC50: −log10 of the molar value.
Measured pEC50, listed per entry.

// known answers, use as guide
[[record]]
compound = "COc1cccc(OC)c1CN[C@H]1[C@H](C(C)(C)C)[C@@H](C(=O)O)N(C(=O)C2CCCCC2)[C@H]1c1ccccc1"
result = "5.00 to 6.00"

[[record]]
compound = "COc1ncc(C(F)(F)F)cc1CN[C@H]1[C@H](C(C)(C)C)[C@@H](C(=O)O)N(C(=O)C2CCc3ccc(F)cc3O2)[C@H]1c1ccccc1 (stereo partly drawn)"
result = "5.00 to 6.00"

[[record]]
compound = "COc1ccc(C(C)(C)C)cc1CN[C@H]1[C@H](C(C)(C)C)[C@@H](C(=O)O)N(C(=O)CN2CCCCCC2)[C@H]1c1ccccc1"
result = "5.00 to 6.00"

[[record]]
compound = "CC(C)(C)[C@H]1[C@H](Nc2cc3ccccc3cn2)[C@H](c2ccccc2)N(C(=O)C2CCCCC2)[C@@H]1C(=O)O"
result = "> 6.00"

[[record]]
compound = "COc1ccc(C(C)(C)C)cc1CN[C@H]1[C@H](C(C)(C)C)[C@@H](C(=O)O)N(C(=O)[C@@H]2CCCO2)[C@H]1c1ccccc1C(C)C"
result = "5.00 to 6.00"

[[record]]
compound = "COc1cnc(C(C)(C)C)cc1CN[C@H]1[C@H](C(C)(C)C)[C@@H](C(=O)O)N(C(=O)C2CCCCC2)[C@H]1c1ccccc1"
result = "5.00 to 6.00"

[[record]]
compound = "COc1ccc(C(F)(F)F)cc1CN[C@@H]1[C@@H](C(C)(C)C)[C@H](C(=O)O)N(C(=O)OC(C)C)[C@@H]1c1cccnc1N(C)C (racemic)"
result = "5.00 to 6.00"

[[record]]
compound = "COc1ccc(C2CC3CCC2C3)cc1CN[C@H]1[C@H](C(C)(C)OC)[C@@H](C(=O)O)N(C(=O)C2CCCCC2)[C@H]1c1ccccc1 (stereo partly drawn)"
result = "5.00 to 6.00"


Request: Dear colleague, please send me the reported pEC50 for COc1ccnc(CN[C@@H]2[C@@H](C(C)(C)C)[C@H](C(=O)O)N(C(=O)C3CCCCC3)[C@@H]2c2ccccc2)n1 (racemic) when you can.
Result: < 5.00

Request: Dear colleague, please send me the reported pEC50 for CC(C)(C)[C@H]1[C@H](NCc2ccc(Cl)c(Cl)c2)[C@H](c2ccccc2)N(C(=O)C2CCCCC2)[C@@H]1C(=O)O when you can.
Result: < 5.00

Request: Dear colleague, please send me the reported pEC50 for COc1ccc(C(C)(C)C)cc1CN[C@H]1[C@H](C(C)(C)C)[C@@H](C(=O)O)N(C(=O)C2CCCCC2)[C@H]1c1ccccc1C(C)C when you can.
Result: > 6.00

Request: Dear colleague, please send me the reported pEC50 for COc1ccc(C(C)(C)C)cc1CN[C@H]1[C@H](C(C)(C)C)[C@@H](C(=O)O)N(C(=O)[C@@H]2CCCCO2)[C@H]1c1ccccc1C when you can.
Result: 5.00 to 6.00

###

Measured EC50, listed per entry.
biological target: F508delCFTR (Homo sapiens, UniProt P13569, DEL508-508); construct: expressed in transfected cells; host or cells: CFBE41o- human lung-derived epithelial cells (CFBE4lo-F508delCFTR-HRP), doxycycline-inducible; test: Cell Surface Expression-Horse Radish Peroxidase (CSE-HRP) Assay; format: cell-based; details: with co-corrector (2 μM of 3-[(2R,4R)-4-({[1-(2,2-difluoro-1,3-benzodioxol-5-yl)cyclopropyl]carbonyl}amino)-7-methoxy-3,4-dihydro-2H-chromen-2-yl]benzoic acid); read-out: EC50 (with co-corrector)

Request: Recall the reported EC50 of COc1ccc(OC(F)(F)F)cc1CN[C@H]1[C@H](C(C)(C)C)[C@@H](C(=O)O)N(C(=O)[C@H](C)c2ccccc2)[C@H]1c1cccnc1OC on F508delCFTR (Homo sapiens, UniProt P13569, DEL508-508) and write it down.
Result: 1000 to 10000 nM

Request: Recall the reported EC50 of COc1ccc(C(C)(C)C)cc1CN[C@H]1[C@H](C(C)(C)C)[C@@H](C(=O)O)N(C(=O)c2cnn3c2CCCC3)[C@H]1c1ccccc1 on F508delCFTR (Homo sapiens, UniProt P13569, DEL508-508) and write it down.
Result: 1000 to 10000 nM

Request: Recall the reported EC50 of COc1ncc(C2CCC2)cc1CN[C@H]1[C@H](C(C)(C)C)[C@@H](C(=O)O)N(C(=O)C2CCCCC2C)[C@H]1c1ccccc1 (stereo partly drawn) on F508delCFTR (Homo sapiens, UniProt P13569, DEL508-508) and write it down.
Result: < 1000 nM

Request: Recall the reported EC50 of COc1ccc(-c2cnn(C3CC3)c2)cc1CN[C@H]1[C@H](C(C)(C)C)[C@@H](C(=O)O)N(C(=O)C2CCCCC2)[C@H]1c1ccccc1 on F508delCFTR (Homo sapiens, UniProt P13569, DEL508-508) and write it down.
Result: 1000 to 10000 nM

###

target: F508delCFTR (Homo sapiens, UniProt P13569, DEL508-508); construct: expressed in transfected cells; host or cells: CFBE41o- human lung-derived epithelial cells (CFBE4lo-F508delCFTR-HRP), doxycycline-inducible; test: Cell Surface Expression-Horse Radish Peroxidase (CSE-HRP) Assay; type: cell-based; conditions: CSE-HRP; with co-corrector (2 μM); maximum at any tested concentration, normalized to on-plate positive control;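 as to Maximum % activity (with co-corrector): co-corrector and positive control are both the same reference corrector at 2 µM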
value.type: Maximum % activity (with co-corrector)

[[record]]
compound = "COc1ccc(C(C)(C)C)cc1CN[C@H]1[C@H](C(C)(C)C)[C@@H](C(=O)O)N(C(=O)C2CCC(C#N)CC2)[C@H]1c1ccccc1 (stereo partly drawn)"
result = "+++ (≥350)"

[[record]]
compound = "COc1ccc(C(C)(C)C)cc1CN[C@H]1[C@H](C(C)(C)C)[C@@H](C(=O)O)N(C(=O)C2CC2c2ccc(F)cc2)[C@H]1c1ccccc1 (stereo partly drawn)"
result = "+++ (≥350)"

[[record]]
compound = "COc1ccc(C(C)(C)C)cc1CN[C@H]1[C@H](C(C)(C)C)[C@@H](C(=O)O)N(C(=O)C2CC2(C)C)[C@H]1c1ccccc1 (stereo partly drawn)"
result = "+++ (≥350)"


###

molecular target: F508delCFTR (Homo sapiens, UniProt P13569, DEL508-508); construct: expressed in transfected cells; host or cells: CFBE41o- human lung-derived epithelial cells (CFBE4lo-F508delCFTR-HRP), doxycycline-inducible; experiment: Cell Surface Expression-Horse Radish Peroxidase (CSE-HRP) Assay; type: cell-based; details: with co-corrector (2 μM of 3-[(2R,4R)-4-({[1-(2,2-difluoro-1,3-benzodioxol-5-yl)cyclopropyl]carbonyl}amino)-7-methoxy-3,4-dihydro-2H-chromen-2-yl]benzoic acid); read-out: EC50 (with co-corrector)
value.type: EC50

// known answers, use as guide
[[record]]
molecule = "COc1ccc(C2CC2)cc1CN[C@H]1[C@H](C(C)(C)C)[C@@H](C(=O)O)N(C(=O)C2CCCCC2)[C@H]1c1ccccc1"
result = "< 1 µM"

[[record]]
molecule = "COc1ccc(-c2ccnnc2)cc1CN[C@H]1[C@H](C(C)(C)C)[C@@H](C(=O)O)N(C(=O)C2CCCCC2)[C@H]1c1ccccc1"
result = "> 10 µM"

[[record]]
molecule = "COc1ccc(C(C)(C)C)cc1CN[C@H]1[C@H](C(C)(C)C)[C@@H](C(=O)O)N(C(=O)C(C)n2cc(Cl)cn2)[C@H]1c1ccccc1 (stereo partly drawn)"
result = "1 to 10 µM"

[[record]]
molecule = "COc1ccc(C(C)(C)C)cc1CN[C@H]1[C@H](C(C)(C)C)[C@@H](C(=O)O)N(C(=O)c2cc(C)n(C)n2)[C@H]1c1ccccc1"
result = "1 to 10 µM"


Request: Dear colleague, please send me the reported EC50 for COc1ccc(C(C)(C)C)cc1CN[C@H]1[C@H](C(C)(C)C)[C@@H](C(=O)O)N(C(=O)C2CCCC2)[C@H]1c1ccccc1 when you can.
Result: < 1 µM

Request: Dear colleague, please send me the reported EC50 for COc1ncc(-c2ccccc2)cc1CN[C@H]1[C@H](C(C)(C)C)[C@@H](C(=O)O)N(C(=O)C2CCCCC2)[C@H]1c1ccccc1F when you can.
Result: < 1 µM

###

target: F508delCFTR (Homo sapiens, UniProt P13569, DEL508-508); construct: expressed in transfected cells; host or cells: CFBE41o- human lung-derived epithelial cells (CFBE4lo-F508delCFTR-HRP), doxycycline-inducible; test: Cell Surface Expression-Horse Radish Peroxidase (CSE-HRP) Assay; type: cell-based; settings: with co-corrector (2 μM of 3-[(2R,4R)-4-({[1-(2,2-difluoro-1,3-benzodioxol-5-yl)cyclopropyl]carbonyl}amino)-7-methoxy-3,4-dihydro-2H-chromen-2-yl]benzoic acid); maximum at any tested concentration, normalized to on-plate positive control;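 as to Maximum % activity (with co-corrector): co-corrector and positive control are both the same reference corrector at 2 µM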
value.type: Maximum % activity (with co-corrector)

// known answers, use as guide
[[record]]
compound = "COc1cc(C(F)(F)F)ccc1CN[C@H]1[C@H](C(C)(C)C)[C@@H](C(=O)O)N(C(=O)[C@H]2CCC[C@H](OC)C2)[C@H]1c1ccccc1"
value_type = "Maximum % activity (with co-corrector)"
result = "+++ (≥350)"

[[record]]
compound = "COc1ccc(C(C)(C)C)cc1CN[C@H]1[C@H](C(C)(C)C)[C@@H](C(=O)O)N(C(=O)C2COc3ccccc3O2)[C@H]1c1cccnc1N(C)C (single isomer, unassigned) [II-471]"
value_type = "Maximum % activity (with co-corrector)"
result = "++ (≥150 and <350)"

[[record]]
compound = "COc1ccc(-c2ccccc2)cc1CN[C@H]1[C@H](C(C)(C)C)[C@@H](C(=O)O)N(C(=O)[C@H]2CCCCO2)[C@H]1c1cccnc1N(C)C"
value_type = "Maximum % activity (with co-corrector)"
result = "+++ (≥350)"

[[record]]
compound = "COc1ccc(C(C)(C)C)cc1CN[C@H]1[C@H](C(C)(C)C)[C@@H](C(=O)O)N(C(=O)C(C)C2CCCCO2)[C@H]1c1ccccc1 (stereo partly drawn)"
value_type = "Maximum % activity (with co-corrector)"
result = "+++ (≥350)"

[[record]]
compound = "CCc1c(C(=O)N2[C@H](C(=O)O)[C@@H](C(C)(C)C)[C@H](NCc3cc(C(C)(C)C)ccc3OC)[C@@H]2c2ccccc2)c(C)nn1-c1ccc(F)cc1"
value_type = "Maximum % activity (with co-corrector)"
result = "+++ (≥350)"


Request: Dear colleague, please send me the reported Maximum % activity (with co-corrector) for COc1ccc(C(C)(C)C)cc1CN[C@H]1[C@H](C(C)(C)C)[C@@H](C(=O)O)N(C(=O)C2CC(C)(C)C2)[C@H]1c1ccccc1 when you can.
Result: +++ (≥350)

Request: Dear colleague, please send me the reported Maximum % activity (with co-corrector) for COc1ccc(C(C)(C)C)cc1CN[C@H]1[C@H](C(C)(C)C)[C@@H](C(=O)O)N(C(=O)[C@]2(C)CCc3c(OC)cccc32)[C@H]1c1ccccc1 when you can.
Result: +++ (≥350)

Request: Dear colleague, please send me the reported Maximum % activity (with co-corrector) for COc1cc(C(F)(F)F)ccc1CN[C@H]1[C@H](C23CC(C2)C3)[C@@H](C(=O)O)N(C(=O)C2CCCCC2)[C@H]1c1ccccc1 when you can.
Result: +++ (≥350)

Request: Dear colleague, please send me the reported Maximum % activity (with co-corrector) for COc1ccc(C(C)(C)C)cc1CN[C@H]1[C@H](C(C)(C)C)[C@@H](C(=O)O)N(C(=O)C2CC23CCOCC3)[C@H]1c1ccccc1 (stereo partly drawn) when you can.
Result: +++ (≥350)

Request: Dear colleague, please send me the reported Maximum % activity (with co-corrector) for COc1cc(Cl)ccc1CN[C@@H]1[C@@H](C(C)(C)C)[C@H](C(=O)O)N(C(=O)C2CCCCC2)[C@@H]1c1ccccn1 (racemic) when you can.
Result: ++ (≥150 and <350)

Request: Dear colleague, please send me the reported Maximum % activity (with co-corrector) for Cc1cc(C(F)(F)F)cc(N[C@@H]2[C@@H](C(C)(C)C)[C@H](C(=O)O)N(C(=O)OC(C)C)[C@@H]2c2cccnc2N(C)C)n1 (racemic) when you can.
Result: ++ (≥150 and <350)

Request: Dear colleague, please send me the reported Maximum % activity (with co-corrector) for COc1nnc(C2CCC2)cc1CN[C@H]1[C@H](C(C)(C)C)[C@@H](C(=O)O)N(C(=O)C2CCCCC2)[C@H]1c1ccccc1 when you can.
Result: ++ (≥150 and <350)
